The values you see were collected from ChEMBL document CHEMBL1135500.

The molecules listed here are annotated with their MIC.
Tested on: Escherichia coli
assay_procedure: In vitro antibacterial activity against ATCC 25922 strain of Escherichia coli
Assay type: functional
quantity_measured: MIC (µg/mL)

>>> test_result("CC(=O)Oc1cccc(C(=O)NCCCCN(Cc2ccccc2C(=O)NC(C(=O)NC2C(=O)N3C2SC(C)(C)C3C(=O)O)c2ccccc2)C(=O)c2cccc(OC(C)=O)c2OC(C)=O)c1OC(C)=O (stereo not given)")
0.4
>>> test_result("CC(=O)Oc1cccc(C(=O)N(C)CCCN(Cc2ccccc2C(=O)NC(C(=O)NC2C(=O)N3C2SC(C)(C)C3C(=O)O)c2ccccc2)C(=O)c2cccc(OC(C)=O)c2OC(C)=O)c1OC(C)=O (stereo not given)")
1.56
>>> test_result("CC(=O)Oc1cccc(C(=O)NCCCCN(CC(=O)NC(C(=O)NC2C(=O)N3C2SC(C)(C)C3C(=O)O)c2ccc(O)cc2)C(=O)c2cccc(OC(C)=O)c2OC(C)=O)c1OC(C)=O (stereo not given)")
0.01
>>> test_result("COC(=O)Oc1cccc2c(=O)n(-c3cc(C(=O)NC(C(=O)NC4C(=O)N5C4SC(C)(C)C5C(=O)O)c4ccccc4)cc(-n4c(=O)oc5c(OC(=O)OC)cccc5c4=O)c3)c(=O)oc12 (stereo not given)")
25

###

The compounds listed here are annotated with their Activity.
Test system: Pseudomonas aeruginosa
assay_procedure: Siderophore activity determined using growth promoting assay in SG137 strain of Pseudomonas aeruginosa under iron limited conditions
Assay type: functional
quantity_measured: Activity

>>> test_result("COC(=O)Oc1cccc(C(=O)N(C)CCCN(CC(=O)O)C(=O)c2cccc(OC(=O)OC)c2OC(=O)OC)c1OC(=O)OC")
9
>>> test_result("COC(=O)Oc1cccc(C(=O)N(CCCCn2c(=O)oc3c(OC(=O)OC)cccc3c2=O)CC(=O)O)c1OC(=O)OC")
27
>>> test_result("COC(=O)Oc1cc(Cl)cc(C(=O)N(C)CCCN(CC(=O)O)C(=O)c2cc(Cl)cc(OC(=O)OC)c2OC(=O)OC)c1OC(=O)OC")
26
>>> test_result("COC(=O)Oc1cccc2c(=O)n(CCC(=O)Nc3cc(NC(=O)CCn4c(=O)oc5c(OC(=O)OC)cccc5c4=O)cc(C(=O)O)c3)c(=O)oc12")
23
>>> test_result("CC(=O)Oc1cccc(C(=O)NCCCCN(Cc2ccccc2C(=O)O)C(=O)c2cccc(OC(C)=O)c2OC(C)=O)c1OC(C)=O")
21
>>> test_result("COC(=O)Oc1cccc(C(=O)N(CCCn2c(=O)oc3c(OC(=O)OC)cccc3c2=O)C(C)CCC(=O)O)c1OC(=O)OC (stereo not drawn)")
15
>>> test_result("CC(=O)Oc1ccc(C(=O)NCCCCN(CC(=O)O)C(=O)c2ccc(OC(C)=O)c(OC(C)=O)c2)cc1OC(C)=O")
10
>>> test_result("CC(=O)Oc1cccc(C(=O)NCCCCN(Cc2ccc(OCC(=O)O)cc2)C(=O)c2cccc(OC(C)=O)c2OC(C)=O)c1OC(C)=O")
19

###

Test system: Escherichia coli
assay_procedure: In vitro antibacterial activity against ATCC 25922 strain of Escherichia coli
Format: functional
The molecules listed here are annotated with their log10 of MIC.
quantity_measured: log10 of MIC (log10 of the value in µg/mL)

>>> test_result("COC(=O)Oc1cc(Cl)cc(C(=O)N(C)CCCN(CC(=O)NC(C(=O)NC2C(=O)N3C2SC(C)(C)C3C(=O)O)c2ccccc2)C(=O)c2cc(Cl)cc(OC(=O)OC)c2OC(=O)OC)c1OC(=O)OC (stereo unspecified)")
-1.30
>>> test_result("COC(=O)Oc1cccc2c(=O)n(CCC(=O)Nc3cc(NC(=O)CCn4c(=O)oc5c(OC(=O)OC)cccc5c4=O)cc(C(=O)NC(C(=O)NC4C(=O)N5C4SC(C)(C)C5C(=O)O)c4ccc(O)cc4)c3)c(=O)oc12 (stereo unspecified)")
0.80
>>> test_result("CC1(C)S[C@@H]2[C@H](NC(=O)[C@H](N)c3ccccc3)C(=O)N2[C@H]1C(=O)O [AMPICILLIN]")
0.80
>>> test_result("C[C@@H](O)[C@H]1C(=O)N2C(C(=O)O)=C(S[C@@H]3CN[C@H](C(=O)N(C)C)C3)[C@H](C)[C@H]12 [MEROPENEM]")
-1.40
>>> test_result("CC1(C)S[C@@H]2[C@H](NC(=O)[C@H](NC(=O)N3CCNC3=O)c3ccccc3)C(=O)N2[C@H]1C(=O)O [AZLOCILLIN]")
0.80
>>> test_result("CC(=O)Oc1cccc(C(=O)NCCCCN(Cc2ccc(OCC(=O)NC(C(=O)NC3C(=O)N4C3SC(C)(C)C4C(=O)O)c3ccccc3)cc2)C(=O)c2cccc(OC(C)=O)c2OC(C)=O)c1OC(C)=O (stereo unspecified)")
-0.11
>>> test_result("COC(=O)Oc1cccc2c(=O)n(CCC(=O)Nc3cc(NC(=O)CCn4c(=O)oc5c(OC(=O)OC)cccc5c4=O)cc(C(=O)NC(C(=O)NC4C(=O)N5C4SC(C)(C)C5C(=O)O)c4ccccc4)c3)c(=O)oc12 (stereo unspecified)")
0.80
>>> test_result("CC(=O)Oc1cccc(C(=O)N(C)CCCN(CC(=O)NC(C(=O)NC2C(=O)N3C2SC(C)(C)C3C(=O)O)c2ccccc2)C(=O)c2cccc(OC(C)=O)c2OC(C)=O)c1OC(C)=O (stereo unspecified)")
-1.70
>>> test_result("COC(=O)Oc1cc(Cl)c(Cl)c(C(=O)N(C)CCCN(CC(=O)NC(C(=O)NC2C(=O)N3C2SC(C)(C)C3C(=O)O)c2ccccc2)C(=O)c2c(Cl)c(Cl)cc(OC(=O)OC)c2OC(=O)OC)c1OC(=O)OC (stereo unspecified)")
-1.70
>>> test_result("COC(=O)Oc1cccc(C(=O)N(C)CCCN(CC(=O)NC(C(=O)NC2C(=O)N3C2SC(C)(C)C3C(=O)O)c2ccccc2)C(=O)c2cccc(OC(=O)OC)c2OC(=O)OC)c1OC(=O)OC (stereo unspecified)")
-1.70
>>> test_result("CC(=O)Oc1cccc(C(=O)NCCN(CC(=O)NC(C(=O)NC2C(=O)N3C2SC(C)(C)C3C(=O)O)c2ccccc2)C(=O)c2cccc(OC(C)=O)c2OC(C)=O)c1OC(C)=O (stereo unspecified)")
-0.11

###

Tested on: Escherichia coli
assay_procedure: In vitro antibacterial activity against ATCC 25922 strain of Escherichia coli
Type: functional
The molecules listed here are annotated with their MIC.
quantity_measured: MIC (µg/mL)

>>> test_result("COC(=O)Oc1cccc2c(=O)n(CC(=O)Nc3cc(NC(=O)Cn4c(=O)oc5c(OC(=O)OC)cccc5c4=O)cc(C(=O)NC(C(=O)NC4C(=O)N5C4SC(C)(C)C5C(=O)O)c4ccccc4)c3)c(=O)oc12 (configuration not stated)")
25
>>> test_result("CC(=O)Oc1cccc(C(=O)Nc2cc(NC(=O)c3cccc(OC(C)=O)c3OC(C)=O)cc(C(=O)NC(C(=O)NC3C(=O)N4C3SC(C)(C)C4C(=O)O)c3ccccc3)c2)c1OC(C)=O (configuration not stated)")
100
>>> test_result("CC(=O)Oc1ccc(C(=O)NCCCCN(CC(=O)NC(C(=O)NC2C(=O)N3C2SC(C)(C)C3C(=O)O)c2ccccc2)C(=O)c2ccc(OC(C)=O)c(OC(C)=O)c2)cc1OC(C)=O (configuration not stated)")
0.78
>>> test_result("COC(=O)Oc1cccc(C(=O)N(CCCCn2c(=O)oc3c(OC(=O)OC)cccc3c2=O)CC(=O)NC(C(=O)NC2C(=O)N3C2SC(C)(C)C3C(=O)O)c2ccccc2)c1OC(=O)OC (configuration not stated)")
0.01
>>> test_result("COC(=O)Oc1cccc(C(=O)N(CCCn2c(=O)oc3c(OC(=O)OC)cccc3c2=O)C(C)C(=O)NC(C(=O)NC2C(=O)N3C2SC(C)(C)C3C(=O)O)c2ccccc2)c1OC(=O)OC (configuration not stated)")
0.4
>>> test_result("COC(=O)Oc1cccc(C(=O)N(CCCn2c(=O)oc3c(OC(=O)OC)cccc3c2=O)C(C)CCC(=O)NC(C(=O)NC2C(=O)N3C2SC(C)(C)C3C(=O)O)c2ccccc2)c1OC(=O)OC (configuration not stated)")
1.56

###

Tested on: Serratia marcescens
assay_procedure: In vitro antibacterial activity against SG 621 strain of Serratia marcescens
Assay type: functional
quantity_measured: MIC (µg/mL)

>>> test_result("COC(=O)Oc1cccc2c(=O)n(CCC(=O)Nc3cc(NC(=O)CCn4c(=O)oc5c(OC(=O)OC)cccc5c4=O)cc(C(=O)NC(C(=O)NC4C(=O)N5C4SC(C)(C)C5C(=O)O)c4ccc(O)cc4)c3)c(=O)oc12 (centres undefined)")
50
>>> test_result("COC(=O)Oc1cccc2c(=O)n(CCC(=O)Nc3cc(NC(=O)CCn4c(=O)oc5c(OC(=O)OC)cccc5c4=O)cc(C(=O)NC(C(=O)NC4C(=O)N5C4SC(C)(C)C5C(=O)O)c4ccccc4)c3)c(=O)oc12 (centres undefined)")
3.12
